The reported measurements were obtained from ChEMBL document CHEMBL4715831.

# protocol: Safety index, ratio of CC50 for HEK293T cells to EC50 for antiviral activity against Influenza A virus A/WSN/33(H1N1) infected in human HEK293T cells
# Assay type: toxicity, cell-based
# conditionContext: read-out: Ratio CC50/EC50
Recorded measurements of selectivity ratio, one per entry
property: selectivity ratio

>>> recordedmeasurement("COc1ccc2[nH]cc(SCC(=O)Nc3ccc(Cl)c(Cl)c3)c2c1")
4.19
>>> recordedmeasurement("O=C(CSc1c[nH]c2cccc(Cl)c12)Nc1ccc(Cl)c(Cl)c1")
5.95
>>> recordedmeasurement("CCOc1ccccc1NC(=O)CSc1c[nH]c2ccc(Cl)cc12")
8.97
>>> recordedmeasurement("O=C(CSc1c[nH]c2c(Cl)cccc12)Nc1ccc(Cl)c(Cl)c1")
4.69
>>> recordedmeasurement("CCOc1ccccc1NC(=O)CSc1c[nH]c2cc(OC)ccc12")
15.4
>>> recordedmeasurement("O=C(CSc1c[nH]c2ccc(Cl)cc12)Nc1ccc(Cl)c(Cl)c1")
5.53
>>> recordedmeasurement("O=C(CSc1c[nH]c2cc(Cl)ccc12)Nc1ccc(Cl)c(Cl)c1")
9.16

###

# protocol: Cytotoxicity against human HEp-2 cells assessed as reduction in cell viability measured after 48 hrs by MTS assay
# Format: cell-based
property: CC50 at 48 h

>>> recordedmeasurement("Cn1cc(SCC(=O)Nc2cccc(Cl)c2Cl)c2ccccc21")
"> 1000 µM"
>>> recordedmeasurement("Cn1cc([S+]([O-])CC(=O)Nc2cccc(Cl)c2)c2ccccc21 (stereo not drawn)")
"> 1000 µM"
>>> recordedmeasurement("Cn1cc(SCC(=O)Nc2ccccc2Cl)c2ccccc21")
"> 1000 µM"

###

# protocol: Safety index, ratio of CC50 for HEK293T cells to EC50 for antiviral activity against Influenza A virus A/WSN/33(H1N1) infected in human HEK293T cells
# Format: toxicity, cell-based
# conditionContext: read-out: Ratio CC50/EC50
property: selectivity ratio

>>> recordedmeasurement("CCOc1ccccc1NC(=O)CSc1c[nH]c2cc(Cl)ccc12")
"> 65.4"
>>> recordedmeasurement("Cn1cc(SCC(=O)Nc2ccc(Cl)c(Cl)c2)c2ccccc21")
"> 156"
>>> recordedmeasurement("CCOc1ccccc1NC(=O)CSc1c[nH]c2c(Br)c(OC)ccc12")
"> 52.6"
>>> recordedmeasurement("COc1cccc2c(SCC(=O)Nc3ccc(Cl)c(Cl)c3)c[nH]c12")
"> 7.21"
>>> recordedmeasurement("NC(=O)c1ncn([C@@H]2O[C@H](CO)[C@@H](O)[C@H]2O)n1")
"> 3.99"
>>> recordedmeasurement("Cn1cc([S+]([O-])CC(=O)Nc2ccc(Cl)cc2)c2ccccc21 (centres undefined)")
"> 10"
>>> recordedmeasurement("Cn1cc(SCC(=O)Nc2cccc(Cl)c2Cl)c2ccccc21")
"> 7.26"
>>> recordedmeasurement("COc1cccc2[nH]cc(SCC(=O)Nc3ccc(Cl)c(Cl)c3)c12")
"> 6.61"
>>> recordedmeasurement("CCOc1ccccc1NC(=O)CSc1c[nH]c2cccc(OC)c12")
"> 8.8"
